Source of measurements: patent US20240408216A1

Target Desc: BaF3 (EGFR Del19) (Homo sapiens, UniProt P00533, cells depend on it, form not given)
Sequence (P00533 with tags, fused parts or gaps DEL746-750): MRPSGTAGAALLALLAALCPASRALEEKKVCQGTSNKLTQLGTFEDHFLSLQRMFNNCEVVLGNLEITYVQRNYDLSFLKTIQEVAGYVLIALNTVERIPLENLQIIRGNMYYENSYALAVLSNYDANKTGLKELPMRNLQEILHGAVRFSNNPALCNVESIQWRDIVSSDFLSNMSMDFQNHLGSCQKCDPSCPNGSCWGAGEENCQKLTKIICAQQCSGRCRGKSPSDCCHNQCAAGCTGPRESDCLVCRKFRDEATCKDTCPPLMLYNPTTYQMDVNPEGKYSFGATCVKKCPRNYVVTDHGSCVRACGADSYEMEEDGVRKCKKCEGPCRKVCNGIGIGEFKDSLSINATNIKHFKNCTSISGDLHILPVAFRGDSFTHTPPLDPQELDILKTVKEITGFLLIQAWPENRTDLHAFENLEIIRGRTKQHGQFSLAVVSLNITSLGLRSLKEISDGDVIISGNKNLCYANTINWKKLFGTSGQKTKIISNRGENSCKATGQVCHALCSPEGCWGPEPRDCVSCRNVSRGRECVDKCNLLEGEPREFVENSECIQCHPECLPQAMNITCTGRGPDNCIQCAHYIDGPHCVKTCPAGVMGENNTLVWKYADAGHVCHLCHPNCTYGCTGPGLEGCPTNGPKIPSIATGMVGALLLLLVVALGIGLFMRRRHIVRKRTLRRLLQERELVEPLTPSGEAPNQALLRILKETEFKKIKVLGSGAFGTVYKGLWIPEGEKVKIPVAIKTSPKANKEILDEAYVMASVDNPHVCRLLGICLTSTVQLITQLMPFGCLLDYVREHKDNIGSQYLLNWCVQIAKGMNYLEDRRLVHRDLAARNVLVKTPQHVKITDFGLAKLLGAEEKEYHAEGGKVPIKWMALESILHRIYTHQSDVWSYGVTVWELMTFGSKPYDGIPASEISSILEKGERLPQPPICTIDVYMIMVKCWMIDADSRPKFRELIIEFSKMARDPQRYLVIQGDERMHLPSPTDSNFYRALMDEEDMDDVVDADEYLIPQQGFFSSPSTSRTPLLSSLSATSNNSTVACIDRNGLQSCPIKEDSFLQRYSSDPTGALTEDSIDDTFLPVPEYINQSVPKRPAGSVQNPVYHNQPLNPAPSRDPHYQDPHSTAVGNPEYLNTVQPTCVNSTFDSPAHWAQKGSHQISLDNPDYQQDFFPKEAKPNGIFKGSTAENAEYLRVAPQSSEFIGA
Test: Cell proliferation IC50 assay (Cell Titer GLO), BaF3 D cells
Type: cell-based, mouse
Test Settings: Table 7, 72 h
Parameter: GI50 (nM)

1. CCc1cc(Nc2ncc(Cl)c(Nc3ccccc3P(C)(C)=O)n2)c(OC)cc1N1CCC(N2CCN(CCCCCc3ccc4c(c3F)CN(C3CCC(=O)NC3=O)C4=O)CC2)CC1 (centres unmarked) [Example E20]
1.7
2. CCc1cc(Nc2ncc(Cl)c(Nc3ccccc3P(C)(C)=O)n2)c(OC)cc1N1CCC(N2CCN(CCC#Cc3cccc4c3CN(C3CCC(=O)NC3=O)C4=O)CC2)CC1 (single isomer, unassigned) [Example E4]
2.1
3. CCc1cc(Nc2ncc(Cl)c(Nc3ccccc3P(C)(C)=O)n2)c(OC)cc1N1CCC2(CCN(CCCC#Cc3cccc4c3CN(C3CCC(=O)NC3=O)C4=O)CC2)CC1 (centres unmarked) [Example E15]
5.3
4. COc1cc(N2CCC3(CCN(CCCC#Cc4cccc5c4CN(C4CCC(=O)NC4=O)C5=O)CC3)CC2)c(C)cc1Nc1ncc(Br)c(Nc2ccc3ccccc3c2P(C)(C)=O)n1 (centres unmarked) [Example E12]
7.8
5. CCc1cc(Nc2ncc(Cl)c(Nc3ccccc3P(C)(C)=O)n2)c(OC)cc1N1CCC(N2CCN(CCOc3cccc4c3CN(C3CCC(=O)NC3=O)C4=O)CC2)CC1 (centres unmarked) [Example E95]
0.8

----------
Tested on: human EGFR-DTC
Test: EGFR protein abundance assay (Western blotting), EGFR-DTC
Format: cell-based
Test Settings: Ba/F3 cells expressing human EGFR-DTC, 24 h, Western blot
Entries and their EGFR-DTC Dmax values follow.
Parameter: EGFR-DTC Dmax (%)

1) CCc1cc(Nc2ncc(Cl)c(Nc3ccccc3P(C)(C)=O)n2)c(OC)cc1N1CCC(N2CCN(CCC#Cc3cccc4c3CN(C3CCC(=O)NC3=O)C4=O)CC2)CC1 (single isomer, unassigned) [Example E5]
86
2) CCc1cc(Nc2ncc(Cl)c(Nc3ccccc3P(C)(C)=O)n2)c(OC)cc1N1CCC(N2CCN(CCOc3cccc4c3CN(C3CCC(=O)NC3=O)C4=O)CC2)CC1 (centres unmarked)
91
3) CCc1cc(Nc2ncc(Cl)c(Nc3ccccc3P(C)(C)=O)n2)c(OC)cc1N1CCC(N2CCN(CCC#Cc3cccc4c3CN(C3CCC(=O)NC3=O)C4=O)CC2)CC1 (single isomer, unassigned) [Example E4]
96
4) CCc1cc(Nc2ncc(Cl)c(Nc3ccccc3P(C)(C)=O)n2)c(OC)cc1N1CCC(N2CCN(CCC#Cc3cccc4c3CN(C3CCC(=O)NC3=O)C4=O)CC2)CC1 (single isomer, unassigned) [Example E6]
70
5) CCc1cc(Nc2ncc(Cl)c(Nc3ccccc3P(C)(C)=O)n2)c(OC)cc1N1CCC(N2Cc3ccc(Oc4cccc5c4CN(C4CCC(=O)NC4=O)C5=O)cc3C2)CC1 (centres unmarked)
86

----------
Target Desc: BaF3 (EGFR Del19/C797S) (Homo sapiens, UniProt P00533, C797S, cells depend on it, form not given)
Construct: BaF3 (EGFR Del19/C797S)|DC|RPMI1640 + 10% FBS
Sequence (P00533 with tags, fused parts or gaps DEL746-750/C797S, form open): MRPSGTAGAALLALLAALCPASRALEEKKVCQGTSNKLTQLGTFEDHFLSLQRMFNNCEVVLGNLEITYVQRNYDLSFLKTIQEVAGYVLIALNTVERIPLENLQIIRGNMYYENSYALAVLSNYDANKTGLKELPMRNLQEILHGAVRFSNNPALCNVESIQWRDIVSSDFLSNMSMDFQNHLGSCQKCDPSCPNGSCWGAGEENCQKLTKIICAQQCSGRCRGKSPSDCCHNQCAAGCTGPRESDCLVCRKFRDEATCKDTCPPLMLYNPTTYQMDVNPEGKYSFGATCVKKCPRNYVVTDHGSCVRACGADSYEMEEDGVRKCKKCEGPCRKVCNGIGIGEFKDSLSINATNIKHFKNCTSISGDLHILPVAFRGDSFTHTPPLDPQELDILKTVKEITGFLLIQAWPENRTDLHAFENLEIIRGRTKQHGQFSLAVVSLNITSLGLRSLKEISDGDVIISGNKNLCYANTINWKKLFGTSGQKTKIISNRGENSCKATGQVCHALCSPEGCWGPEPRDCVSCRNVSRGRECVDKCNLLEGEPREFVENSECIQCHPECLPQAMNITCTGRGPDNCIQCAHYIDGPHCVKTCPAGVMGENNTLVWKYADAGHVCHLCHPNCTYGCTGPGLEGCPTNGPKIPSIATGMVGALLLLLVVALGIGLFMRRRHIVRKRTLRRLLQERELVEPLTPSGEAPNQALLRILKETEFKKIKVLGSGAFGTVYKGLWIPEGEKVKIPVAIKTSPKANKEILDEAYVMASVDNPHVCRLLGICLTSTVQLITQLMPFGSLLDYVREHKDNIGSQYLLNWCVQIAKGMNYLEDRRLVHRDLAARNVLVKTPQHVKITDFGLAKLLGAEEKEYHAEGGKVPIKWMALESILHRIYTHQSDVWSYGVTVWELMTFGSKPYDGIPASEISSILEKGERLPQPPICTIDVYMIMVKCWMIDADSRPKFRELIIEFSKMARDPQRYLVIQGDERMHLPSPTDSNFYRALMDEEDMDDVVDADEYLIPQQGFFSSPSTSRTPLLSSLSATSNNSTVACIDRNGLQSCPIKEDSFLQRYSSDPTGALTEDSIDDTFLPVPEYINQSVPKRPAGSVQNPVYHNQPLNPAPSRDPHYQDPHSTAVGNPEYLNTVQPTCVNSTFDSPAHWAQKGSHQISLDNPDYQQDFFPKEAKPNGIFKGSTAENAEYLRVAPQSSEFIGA
Test: Cell proliferation IC50 assay (Cell Titer GLO), BaF3 DC cells
Format: cell-based, mouse
Test Settings: Table 6, 72 h
pIC50: −log10 of the molar value.
Parameter: pIC50

1. CCc1cc(Nc2ncc(-c3cnn(C)c3)c(Nc3ccccc3P(C)(C)=O)n2)c(OC)cc1N1CCC(N2CCN(CCOc3cc(F)cc4c3CN(C3CCC(=O)NC3=O)C4=O)CC2)CC1 (stereo not drawn)
9.30
2. COc1cc(N2CCC(N3CCN(CCC#Cc4cccc5c4CN(C4CCC(=O)NC4=O)C5=O)CC3)CC2)ncc1Nc1ncc(Cl)c(Nc2ccccc2P(C)(C)=O)n1 (stereo not drawn)
7.26
3. CCc1cc(Nc2ncc(Cl)c(Nc3ccccc3P(C)(C)=O)n2)c(OC)cc1N1CCC(N2CCN(C(=O)CNc3cccc4c3C(=O)N(C3CCC(=O)NC3=O)C4=O)CC2)CC1 (stereo not drawn)
7.97
